Where do the numbers come from? From patent US20230125075A1.

Test: in vitro
Details: human
property_label: viability at 24 h, 100 mM (%)
// units = %; emit number, no label

Input CCO [Ethanol] . Output viability at 24 h, 100 mM: 68.2
